Recorded values, source the antibiotic and cytotoxicity screens of Wong et al. (2023).

System: HSkMC
Test: cytotoxicity call (relative viability < 0.9)
Conditions: 10 µM
About 1,500 (3.8%) of roughly 39,000 compounds were called active. What follows is part of a selection rich in actives, with near analogues and random picks from the rest.
Outcome codes: active, inactive

{"columns": ["structure-string", "target-entity", "label"],
 "data": [
  ["CC(C)NC(=O)N(C)C[C@@H]1Oc2c(NC(=O)NC3CCCCC3)cccc2C(=O)N([C@@H](C)CO)C[C@@H]1C", "HSkMC", "inactive"],
  ["COCC(=O)N[C@@H]1C[C@H](CO)[C@H](O)C1", "HSkMC", "inactive"],
  ["C[C@@H]1CN([C@@H](C)CO)C(=O)c2cc(NC(=O)Nc3ccc(F)cc3)ccc2O[C@@H](C)CCCCO[C@@H]1CN(C)C(=O)C1CCCCC1", "HSkMC", "inactive"],
  ["Cc1ccc(Nc2ncc3c(n2)N(C)C(=O)N(c2cc(NC(=O)c4cccc(C(F)(F)F)c4)ccc2C)C3)cn1", "HSkMC", "active"],
  ["Cc1ncc(NC(=O)c2cccc(C(F)(F)F)c2)cc1-c1cnc(OC2CCOCC2)c(N2CCOCC2)c1", "HSkMC", "inactive"],
  ["Cc1noc(C)c1S(=O)(=O)Nc1ccc2c(c1)C(=O)N([C@H](C)CO)C[C@H](C)[C@H](CN(C)C(=O)Nc1ccc3c(c1)OCO3)O2", "HSkMC", "inactive"],
  ["C[C@H]1CN([C@@H](C)CO)C(=O)c2cc(NS(=O)(=O)c3ccc(Cl)cc3)ccc2O[C@H]1CN(C)C(=O)Nc1cccc2ccccc12", "HSkMC", "inactive"],
  ["O=C(N[C@H]1CC[C@H](CC(=O)N2CCOCC2)O[C@H]1CO)c1ccc2c(c1)OCO2", "HSkMC", "inactive"],
  ["OC[C@@H]1CC[C@@H]2O[C@H](CCc3ccc(C#Cc4ccccc4)cc3)[C@H](n3cc(-c4ccccc4)nn3)C[C@@H]2O1", "HSkMC", "active"],
  ["CC1(C)CC(=O)c2c(C(F)(F)F)nn(-c3ccc(C(N)=O)c(O[C@H]4CC[C@H](N)CC4)c3)c2C1", "HSkMC", "inactive"]
]}

----------
Test system: HSkMC
Test: cytotoxicity call (relative viability < 0.9)
Details: 10 µM
Hit rate of the full screen: of about 39,000 compounds, about 1,500 (3.8%) were called active. The full list was thinned out, with actives kept by preference.
recorded-endpoint: cytotoxicity call

{"columns": ["structure-string", "target-entity", "recorded-endpoint", "reported-measurement"],
 "data": [
  ["Cc1sc2[nH]cnc(=S)c2c1C", "HSkMC", "cytotoxicity call", "inactive"],
  ["C[C@H]1CN([C@@H](C)CO)C(=O)c2cccc(NC(=O)C3CCCCC3)c2O[C@@H]1CN(C)Cc1ccc(Cl)c(Cl)c1", "HSkMC", "cytotoxicity call", "inactive"],
  ["CO[C@@H]1CN(C)C(=O)c2ccc(NS(C)(=O)=O)cc2OC[C@H](C)N(C(=O)CN(C)C)C[C@@H]1C", "HSkMC", "cytotoxicity call", "inactive"]
]}

----------
Test system: HSkMC
Experiment: cytotoxicity call (relative viability < 0.9)
Conditions: 10 µM
The campaign covered roughly 39,000 compounds. About 1,500 (3.8%) were called active. The full list was thinned out, with actives kept by preference.
Outcome codes: Y (active), N (inactive)

{"columns": ["structure-string", "label"],
 "data": [
  ["C[C@H]1CN([C@@H](C)CO)C(=O)Cc2cc(NC(=O)Nc3ccc(F)cc3)ccc2O[C@@H]1CN(C)Cc1ccc(Cl)c(Cl)c1", "Y"],
  ["C[C@H](CO)N1C[C@H](C)[C@H](CN(C)CC2CCCCC2)Oc2c(NC(=O)Nc3ccc(C(F)(F)F)cc3)cccc2C1=O", "N"],
  ["C[C@H](CO)N1C[C@H](C)[C@H](CN(C)CC2CCCCC2)Oc2c(NC(=O)Nc3ccc(F)cc3)cccc2C1=O", "N"],
  ["C[C@H]1CCCCO[C@@H](CN(C)C(=O)Nc2ccccc2)[C@@H](C)CN([C@@H](C)CO)C(=O)c2cc(NC(=O)NC3CCCCC3)ccc2O1", "N"],
  ["C[C@H](CO)N1C[C@H](C)[C@H](CN(C)Cc2ccc(Cl)c(Cl)c2)Oc2ccc(NC(=O)Nc3ccc(F)cc3)cc2CC1=O", "Y"],
  ["C[C@H]1CN([C@@H](C)CO)C(=O)c2cccc(NC(=O)Nc3ccc(F)cc3)c2O[C@H]1CN(C)CC1CCCCC1", "N"],
  ["COc1ccc(S(=O)(=O)N(C)C[C@H]2OCCCC[C@H](C)Oc3ccc(NC(=O)Nc4ccc(C(F)(F)F)cc4)cc3C(=O)N([C@@H](C)CO)C[C@@H]2C)cc1", "N"],
  ["C[C@H]1CN([C@@H](C)CO)C(=O)c2cccc(NC(=O)Nc3ccc(C(F)(F)F)cc3)c2O[C@@H]1CN(C)Cc1ccncc1", "N"],
  ["COc1ccc(S(=O)(=O)N(C)C[C@H]2OCCCC[C@@H](C)Oc3ccc(NC(=O)Nc4ccc(C(F)(F)F)cc4)cc3C(=O)N([C@@H](C)CO)C[C@H]2C)cc1", "Y"]
]}

----------
Tested on: HSkMC
Assay: cytotoxicity call (relative viability < 0.9)
Conditions: 10 µM
Screen size: about 39,000 compounds; about 1,500 (3.8%) were called active. The full list was thinned out, with actives kept by preference.
Outcome codes: active, inactive

{"columns": ["molecule", "label"],
 "data": [
  ["C[C@H](CO)N1C[C@H](C)[C@@H](CN(C)Cc2ccc(Oc3ccccc3)cc2)Oc2c(NC(=O)Nc3ccc(C(F)(F)F)cc3)cccc2C1=O", "active"],
  ["Nc1nc(=O)c2c(CCc3ccc(C(=O)NC(CCC(=O)[O-])C(=O)[O-])cc3)c[nH]c2[nH]1.[Na+].[Na+] (stereo not drawn)", "inactive"],
  ["COCC#Cc1cnc2c(c1)C(=O)N([C@H](C)CO)C[C@@H](C)[C@@H](CN(C)C(=O)c1cnccn1)O2", "inactive"],
  ["C[C@@H]1CN([C@H](C)CO)C(=O)c2cc(NC(=O)Nc3ccc(F)cc3)ccc2O[C@@H](C)CCCCO[C@H]1CN(C)Cc1ccc(C(F)(F)F)cc1", "active"],
  ["C[C@H](CO)N1C[C@H](C)[C@@H](CN(C)CC2CCCCC2)Oc2ccc(NC(=O)Nc3ccc(F)cc3)cc2CC1=O", "inactive"],
  ["C[C@H]1CN([C@@H](C)CO)C(=O)c2cccc(NC(=O)Nc3ccc(C(F)(F)F)cc3)c2O[C@H]1CN(C)Cc1ccc(Oc2ccccc2)cc1", "active"],
  ["C[C@@H]1CCCCO[C@H](CN(C)Cc2ccc(C(F)(F)F)cc2)[C@@H](C)CN([C@H](C)CO)C(=O)c2cc(NC(=O)Nc3ccc(C(F)(F)F)cc3)ccc2O1", "inactive"],
  ["C[C@H](CO)N1C[C@H](C)[C@@H](CN(C)Cc2ccncc2)OCCCC[C@H](C)Oc2ccc(NC(=O)Nc3ccc(C(F)(F)F)cc3)cc2C1=O", "inactive"]
]}

----------
Tested on: HSkMC (human skeletal muscle cells)
Assay: cytotoxicity call (relative viability < 0.9)
Settings: 10 µM
The whole screen tested about 39,000 compounds, of which about 1,500 (3.8%) were called active. Many of the other results were omitted from the sample, so actives are more common in it than they were.
recorded-endpoint: cytotoxicity call

{"columns": ["structure-string", "recorded-endpoint", "reported-measurement"],
 "data": [
  ["CC(C)NC(=O)N(C)C[C@@H]1Oc2ccc(NS(=O)(=O)c3ccccc3)cc2C(=O)N([C@@H](C)CO)C[C@@H]1C", "cytotoxicity call", "inactive"],
  ["CC(C)NC(=O)N(C)C[C@H]1Oc2cc(C#Cc3cccc(F)c3)ccc2S(=O)(=O)N([C@@H](C)CO)C[C@@H]1C", "cytotoxicity call", "inactive"],
  ["C[C@H]1CN([C@@H](C)CO)C(=O)c2cccc(NC(=O)Nc3ccc(C(F)(F)F)cc3)c2O[C@@H]1CN(C)C(=O)Nc1ccc2c(c1)OCO2", "cytotoxicity call", "active"],
  ["C[C@@H]1CCCCO[C@@H](CN(C)C(=O)Nc2ccccc2)[C@@H](C)CN([C@H](C)CO)C(=O)c2cc(NC(=O)Nc3ccccc3)ccc2O1", "cytotoxicity call", "inactive"],
  ["C[C@@H]1CCCCO[C@H](CN(C)CC2CCCCC2)[C@H](C)CN([C@@H](C)CO)C(=O)c2cc(NC(=O)Nc3ccc(F)cc3)ccc2O1", "cytotoxicity call", "inactive"],
  ["COc1ccc(-c2cnc3c(c2)C(=O)N([C@H](C)CO)C[C@@H](C)[C@H](CN(C)C(=O)Cc2cccnc2)O3)cc1", "cytotoxicity call", "inactive"],
  ["C[C@@H]1CCCCO[C@H](CN(C)CC2CCCCC2)[C@H](C)CN([C@H](C)CO)C(=O)c2cc(NC(=O)Nc3ccc(F)cc3)ccc2O1", "cytotoxicity call", "active"],
  ["C[C@H]1CCCCO[C@@H](CN(C)CC2CCCCC2)[C@@H](C)CN([C@@H](C)CO)C(=O)c2cc(NC(=O)Nc3ccc(C(F)(F)F)cc3)ccc2O1", "cytotoxicity call", "active"],
  ["COc1ccc([C@@H]2CC(=O)c3c(O)cc(O[C@@H]4O[C@H](CO[C@@H]5O[C@@H](C)[C@H](O)[C@@H](O)[C@H]5O)[C@@H](O)[C@H](O)[C@H]4O)cc3O2)cc1O", "cytotoxicity call", "inactive"],
  ["COc1ccc(S(=O)(=O)N(C)C[C@H]2OCCCC[C@@H](C)Oc3ccc(NC(=O)CCC(F)(F)F)cc3C(=O)N([C@@H](C)CO)C[C@@H]2C)cc1", "cytotoxicity call", "inactive"],
  ["C[C@@H]1CCCCO[C@@H](CN(C)CC2CCCCC2)[C@H](C)CN([C@@H](C)CO)C(=O)c2cc(NC(=O)Nc3ccc(F)cc3)ccc2O1", "cytotoxicity call", "inactive"],
  ["C[C@@H]1CN([C@H](C)CO)C(=O)c2cc(NC(=O)Nc3ccc(F)cc3)ccc2O[C@@H](C)CCCCO[C@@H]1CN(C)CC1CCCCC1", "cytotoxicity call", "active"],
  ["C[C@@H]1CCCCO[C@@H](CN(C)CC2CCCCC2)[C@H](C)CN([C@H](C)CO)C(=O)c2cc(NC(=O)Nc3ccc(C(F)(F)F)cc3)ccc2O1", "cytotoxicity call", "active"],
  ["C[C@@H]1CN([C@@H](C)CO)C(=O)c2cccc(NS(=O)(=O)c3ccc(Cl)cc3)c2O[C@H]1CN(C)Cc1ccc(-c2ccccc2)cc1", "cytotoxicity call", "inactive"],
  ["C[C@H]1CCCCO[C@H](CN(C)CC2CCCCC2)[C@@H](C)CN([C@@H](C)CO)C(=O)c2cc(NC(=O)Nc3ccc(F)cc3)ccc2O1", "cytotoxicity call", "inactive"],
  ["NC(=O)NC(=O)C[n+]1ccc(/C=N/O)cc1", "cytotoxicity call", "inactive"],
  ["CO[C@@H]1CN(C)C(=O)c2ccc(NS(C)(=O)=O)cc2OC[C@@H](C)N(S(C)(=O)=O)C[C@H]1C", "cytotoxicity call", "inactive"],
  ["C[C@@H]1CN([C@H](C)CO)C(=O)c2cc(NC(=O)Nc3ccc(F)cc3)ccc2O[C@@H]1CN(C)Cc1ccc(C(=O)Nc2ccccc2N)cc1", "cytotoxicity call", "inactive"],
  ["C[C@H](CO)N1C[C@H](C)[C@H](CN(C)C(=O)Nc2ccc3c(c2)OCO3)Oc2c(NC(=O)Nc3ccc(C(F)(F)F)cc3)cccc2C1=O", "cytotoxicity call", "inactive"]
]}
